Catalogue of half-life values
assay: Metabolic stability; format: in vitro ADME; settings: rat, plasma
Positions of bridges follow the written chain, without caps; N, C: chain ends. Non-standard residues stand in square brackets, D forms with d. Residues, ends and D or L forms follow the SMILES beside them. Nle = CCCC[C@H](N)C(=O)O

compound	half-life
CC[C@H](C)[C@@H]1NC(=O)[C@H](CCCNC(=N)N)NC(=O)[C@H](CC(C)C)NC(=O)[C@H](Cc2ccccc2)NC(=O)CC[C@@H](C(=O)N[C@@H](CCCCN)C(=O)O)NC(=O)[C@H](CCCNC(=N)N)NC1=O [ligand 5, c^N,6[Phe-Leu-Arg-Ile-Arg-Glu]-Lys-OH] (FLRIREK-OH; lactam N-6 (inferred))	> 5 h
CCCC[C@H](NC(=O)[C@H](CCCCN)NC(=O)[C@@H]1CCCN1C(=O)[C@H](CCCCN)NC(=O)[C@@H](N)CCCC)C(=O)N[C@@H](CCCCN)C(=O)O [ligand 1, H-Nle-Lys-Pro-Lys-Nle-Lys-OH] (H-[Nle]KPK[Nle]K-OH)	< 1 h
